subjectOfTest: CDK4/cyclin D3 (Homo sapiens)
Construct: made in house; host or cells: insect cells (baculovirus co-infection)
Sequence (P11802 whole entry): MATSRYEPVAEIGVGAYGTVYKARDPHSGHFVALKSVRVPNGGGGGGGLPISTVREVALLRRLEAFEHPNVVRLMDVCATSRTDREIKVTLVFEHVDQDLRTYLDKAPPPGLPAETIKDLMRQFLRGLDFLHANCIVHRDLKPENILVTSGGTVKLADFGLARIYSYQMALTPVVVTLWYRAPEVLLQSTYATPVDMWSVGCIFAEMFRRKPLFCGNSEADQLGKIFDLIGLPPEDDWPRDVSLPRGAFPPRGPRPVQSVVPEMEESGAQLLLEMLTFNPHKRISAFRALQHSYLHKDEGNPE
Sequence (P30281 1-264 partner limits assumed): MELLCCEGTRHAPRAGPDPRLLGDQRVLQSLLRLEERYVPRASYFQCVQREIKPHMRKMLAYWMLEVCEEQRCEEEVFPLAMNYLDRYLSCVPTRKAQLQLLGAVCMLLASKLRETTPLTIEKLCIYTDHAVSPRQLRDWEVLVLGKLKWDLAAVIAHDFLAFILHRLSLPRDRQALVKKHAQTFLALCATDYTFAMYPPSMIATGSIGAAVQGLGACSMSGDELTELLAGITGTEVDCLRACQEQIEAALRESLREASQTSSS
procedureSummary: Inhibition of CDK4/Cyclin D retinoblastoma kinase activity
Type: biochemical
reportedConditions: test compound at 0.1 μM; read-out: % Inhib CDK4/D @ 0.1 μM
testReadout: inhibition at 0.1 µM (%)

> print(dat)
                                   compound           testreadout  observed
1  COc1cccc(CSc2ccc(Nc3nc(N)c(C(=O)c4c(Cl)cccc4Cl)s3)cc2)c1 [DD(17)]  inhibition at 0.1 µM        -3
2  COCCS(=O)(=O)c1ccc(Nc2nc(N)c(C(=O)c3c(Cl)cccc3Cl)s2)cc1 [DD(174)]  inhibition at 0.1 µM        24

[1] CC(C)OC(=O)C[S+]([O-])c1ccc(Nc2nc(N)c(C(=O)c3c(Cl)cccc3Cl)s2)cc1 (stereo not shown) [DD(103)]
[2] CCC(CC)CSc1ccc(Nc2nc(N)c(C(=O)c3c(Cl)cccc3Cl)s2)cc1 [DD(36)]
### Prompt # compare inhibition at 0.1 µM for 1 vs 2 ; return the one with the smaller value Could you answer with the label of the item you picked?
### Response 2
(2: 18%, 1: 38%)

----------
subjectOfTest: CDK4/cyclin D3 (Homo sapiens)
Construct: made in house; host or cells: insect cells (baculovirus co-infection)
procedureSummary: Inhibition of CDK4/Cyclin D retinoblastoma kinase activity
Assay type: biochemical
reportedConditions: test compound at 0.03 (unit cell empty, head line shifted; μM); read-out: % Inhib CDK4/D @ 0.03
testReadout: inhibition at 0.03 µM (%)

> print(dat)
                                   compound                  subjectoftest            testreadout  valueunit  observed
1  Nc1nc(Nc2cccc(SCC(=O)Nc3ccccc3)c2)sc1C(=O)c1c(Cl)cccc1Cl  CDK4/cyclin D3 (Homo sapiens)  inhibition at 0.03 µM          %        17
2  CCC(CC)CS(=O)(=O)c1ccc(Nc2nc(N)c(C(=O)c3c(Cl)cccc3Cl)s2)cc1  CDK4/cyclin D3 (Homo sapiens)  inhibition at 0.03 µM          %      -0.4

[P] CC(C)OC(=O)C[S+]([O-])c1cccc(Nc2nc(N)c(C(=O)c3c(Cl)cccc3Cl)s2)c1 (centres unmarked)
[Q] Nc1nc(Nc2ccc([S+]([O-])CCN3CCOCC3)cc2)sc1C(=O)c1c(Cl)cccc1Cl (centres unmarked)
### Prompt # compare inhibition at 0.03 µM for P vs Q ; return the one with the smaller value Could you answer with the label of the item you picked?
### Response Q

[A] Nc1nc(Nc2cccc([S+]([O-])CC3CO3)c2)sc1C(=O)c1c(Cl)cccc1Cl (centres unmarked)
[B] C=CCCSc1ccc(Nc2nc(N)c(C(=O)c3c(Cl)cccc3Cl)s2)cc1
[C] CC(C)=CCSc1ccc(Nc2nc(N)c(C(=O)c3c(Cl)cccc3Cl)s2)cc1
[D] CC(C)CCOC(=O)CS(=O)(=O)c1ccc(N(C)c2nc(N)c(C(=O)c3c(Cl)cccc3Cl)s2)cc1
[E] COc1cccc(C[S+]([O-])c2ccc(Nc3nc(N)c(C(=O)c4c(Cl)cccc4Cl)s3)cc2)c1 (centres unmarked)
### Prompt Sort the 5 compounds by inhibition at 0.03 µM; largest first, smallest last. Labels, requested order.
### Response A, B, D, E, C
(A: 44%, B: 22%, D: -1.8%, E: -3.5%, C: -17%)
